target: human histamine H1-receptor (Homo sapiens (Human), UniProt P35367)
Sequence (P35367 whole entry): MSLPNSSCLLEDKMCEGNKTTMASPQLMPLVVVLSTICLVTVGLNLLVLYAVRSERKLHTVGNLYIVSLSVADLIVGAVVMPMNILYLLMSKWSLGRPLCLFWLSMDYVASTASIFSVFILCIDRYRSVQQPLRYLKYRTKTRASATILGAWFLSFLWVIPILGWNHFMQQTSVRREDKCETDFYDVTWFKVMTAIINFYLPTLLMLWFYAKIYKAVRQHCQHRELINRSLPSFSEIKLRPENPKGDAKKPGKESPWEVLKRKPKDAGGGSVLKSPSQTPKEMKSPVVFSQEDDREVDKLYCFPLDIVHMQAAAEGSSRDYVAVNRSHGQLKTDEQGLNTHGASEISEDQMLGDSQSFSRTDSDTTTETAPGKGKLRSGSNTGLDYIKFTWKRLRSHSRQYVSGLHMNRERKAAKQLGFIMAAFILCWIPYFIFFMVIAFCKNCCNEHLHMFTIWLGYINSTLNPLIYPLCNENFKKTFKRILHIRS
testDescription: Affinity for histamine H1-receptor: 3H-pyrilamine binding to membranes of CHO cells transfected with the human H1 receptor
measurementSetup: comparative compounds from the state of the art; same protocol; read-out: IC50, affinity for human histamine H1-receptor for comparative compounds
pIC50: −log10 of the molar value.
assayReadout: pIC50

compound: O=C(O)c1ccc(OCCN2CCC(c3nc4ccccc4n3CCOc3ccccc3)CC2)cc1 [reference compound]
assayReadout: pIC50
observed: 6.59

P = CCOCCn1c(C2CCN(CCOc3ccc(CC(=O)O)cc3)CC2)nc2ccccc21 [reference compound]
Q = CCOCCn1c(C2CCN(CCc3ccc(C(C)(C)C)cc3)CC2)nc2ccccc21 [reference compound]
R = O=C(O)Cc1ccc(OCCN2CCC(c3nc4ccccc4n3CCOc3ccccc3)CC2)cc1 [reference compound]
Kindly order the items shown according to pIC50, from the highest value down. Give me the labels in the order the question wants.
R, Q, P
